# Tested on: transplanted paddy rice plant and Bulrush
# assay method text: Test Example 5: selectivity between transplanted paddy rice plant and weeds
# Type: in vivo
# experimental parameters: (highest dosage with no phytotoxicity to paddy rice)/(lowest dosage with effective level 4 on Bulrush); rice 3000-100 g/ha, Bulrush 300-10 g/ha; 21 days
measured attribute: Selective Index
Quick one: just the number, no unit, thanks!

## Input Query for transplanted paddy rice plant and Bulrush: what Selective Index does the record show for CC(C)COC(=O)N(c1ccccc1CN1CC(C(C)C)OC1=O)S(=O)(=O)C(F)(F)F (stereo not shown) ?
## Output 10

## Input Give transplanted paddy rice plant and Bulrush Selective Index for CCCC1(C)CN(Cc2ccccc2N(C(=O)OCC(C)C)S(=O)(=O)C(F)(F)F)C(=O)O1 (racemic)
## Output 10

## Input Which Selective Index is reported with transplanted paddy rice plant and Bulrush for this entry: CCC1(C(C)C)CN(Cc2ccccc2N(C(=O)OCC(C)C)S(=O)(=O)C(F)(F)F)C(=O)O1 (stereo not shown) ?
## Output 10

## Input Reported Selective Index for transplanted paddy rice plant and Bulrush, given `CC(C)COC(=O)N(c1ccccc1CN1CC(C)(C)OC1=O)S(=O)(=O)C(F)(F)F` ?
## Output 30

---

# Tested on: transplanted paddy rice plant and Bulrush
# assay method text: Test Example 5: selectivity between transplanted paddy rice plant and weeds
# Type: in vivo
# experimental parameters: (highest dosage with no phytotoxicity to paddy rice)/(lowest dosage with effective level 4 on Bulrush); rice 3000-100 g/ha, Bulrush 300-10 g/ha; 21 days
measured attribute: Selective Index
Answer with the value's number alone.

## Input Can you share its Selective Index? I mean this molecule: `CC(C)COC(=O)N(c1ccccc1CN1C(=O)OCC1(C)C)S(=O)(=O)C(F)(F)F`
## Output 33

## Input Looking for the measured Selective Index of CCCCOC(=O)N(c1ccccc1CN1CC(C)(C(C)C)OC1=O)S(=O)(=O)C(F)(F)F (racemic) , can you help?
## Output 10

## Input Consider the molecule CC(C)COC(=O)N(c1ccccc1CN1CC(C)(C2(C)CC2)OC1=O)S(=O)(=O)C(F)(F)F (stereo not drawn) and give its measured Selective Index.
## Output 10

## Input Which Selective Index value is on record for CC1(C2CC2)CN(Cc2ccccc2NS(=O)(=O)C(F)(F)F)C(=O)O1 (stereo not drawn) ?
## Output 10

## Input Consider the molecule CCC1CN(Cc2ccccc2N(C(=O)OCC(C)C)S(=O)(=O)C(F)(F)F)C(=O)O1 (stereo not drawn) and give its measured Selective Index.
## Output 33

## Input Dear colleague, I am looking for the recorded Selective Index of the following molecule: CCC1(C)CN(Cc2ccccc2NS(=O)(=O)C(F)(F)F)C(=O)O1 (racemic)
## Output 3.3

## Input Look up Selective Index for this molecule: CC1CN(Cc2ccccc2NS(=O)(=O)C(F)(F)F)C(=O)O1 (stereo not drawn)
## Output 10

## Input May I ask what Selective Index has been recorded for `CC1(C)CN(Cc2ccccc2N(C(=O)OCC(Cl)(Cl)Cl)S(=O)(=O)C(F)(F)F)C(=O)O1` ?
## Output 10

## Input Please look up its Selective Index: CCC1(C(C)C)CN(Cc2ccccc2N(C(=O)OC)S(=O)(=O)C(F)(F)F)C(=O)O1 (stereo not drawn)
## Output 10

## Input Query: Selective Index; subject: `CC(C)COC(=O)N(c1ccccc1CN1CC(C)(C)SC1=O)S(=O)(=O)C(F)(F)F`
## Output 33.3

## Input Which Selective Index is listed for `CCC1(CC)CN(Cc2ccccc2N(C(=O)OCC(C)(C)C)S(=O)(=O)C(F)(F)F)C(=O)O1` ?
## Output 10

## Input Fill in: Selective Index of CC(C)COC(=O)N(c1ccccc1CN1C(=O)OCC1C)S(=O)(=O)C(F)(F)F (stereo not drawn) is ___
## Output 10

## Input Give its Selective Index value. Item: `CC1(C)CN(Cc2ccccc2N(C(=O)Oc2ccccc2)S(=O)(=O)C(F)(F)F)C(=O)O1`
## Output 10

## Input # get_value(readout='Selective Index', item= CCCCCOC(=O)N(c1ccccc1CN1CC(C)(CC)OC1=O)S(=O)(=O)C(F)(F)F (stereo not drawn) )
## Output 30

## Input Quick one: Selective Index for `CCCOC(=O)N(c1ccccc1CN1CC(CC)(CC)OC1=O)S(=O)(=O)C(F)(F)F` ?
## Output 10

## Input I am curious: what Selective Index value has been reported for CCOC(=O)N(c1ccccc1CN1CC(C)(C(C)C)OC1=O)S(=O)(=O)C(F)(F)F (racemic) ?
## Output 10

## Input Request the reported Selective Index associated with CCCC1(CC)CN(Cc2ccccc2N(C(=O)OCC(C)C)S(=O)(=O)C(F)(F)F)C(=O)O1 (stereo not drawn)
## Output 10

## Input // query Selective Index value for entry COC(=O)N(c1ccccc1CN1C(=O)OC2CCCCC21)S(=O)(=O)C(F)(F)F (stereo not drawn)
## Output 10

## Input Could you tell me which Selective Index is on file for CCCCOC(=O)N(c1ccccc1CN1CC(C)(C2CC2)OC1=O)S(=O)(=O)C(F)(F)F (racemic) ?
## Output 30

## Input Look at this molecule and give its reported Selective Index. CCCC1(C)CN(Cc2ccccc2N(C(=O)OCC)S(=O)(=O)C(F)(F)F)C(=O)O1 (racemic)
## Output 30

## Input Record request: Selective Index value, item COC(=O)N(c1ccccc1CN1CC(C)(C(C)(C)C)OC1=O)S(=O)(=O)C(F)(F)F (stereo not drawn)
## Output 10

## Input Find the recorded Selective Index belonging to CC(C)COC(=O)N(c1ccccc1CN1C(=O)OC2CCCCC21)S(=O)(=O)C(F)(F)F (stereo not drawn) and report it.
## Output 10

## Input Suppose we examine the molecule `CC1(C)COC(=O)N1Cc1ccccc1NS(=O)(=O)C(F)(F)F` ; what Selective Index value has been reported?
## Output 10

---

# Test system: transplanted paddy rice plant and Bulrush
# assay method text: Test Example 5: selectivity between transplanted paddy rice plant and weeds
# Assay type: in vivo
# experimental parameters: (highest dosage with no phytotoxicity to paddy rice)/(lowest dosage with effective level 4 on Bulrush); rice 3000-100 g/ha, Bulrush 300-10 g/ha; 21 days
measured attribute: Selective Index

[[record]]
molecule = "CCC1(C)CN(Cc2ccccc2N(C(=O)OCC(C)C)S(=O)(=O)C(F)(F)F)C(=O)O1 (racemic)"
experimental_target = "transplanted paddy rice plant and Bulrush"
endpoint_value = "≧30"

[[record]]
molecule = "C=CCOC(=O)N(c1ccccc1CN1CC(C)(C)OC1=O)S(=O)(=O)C(F)(F)F"
experimental_target = "transplanted paddy rice plant and Bulrush"
endpoint_value = "≧30"

[[record]]
molecule = "CCCCCCOC(=O)N(c1ccccc1CN1CC(C)(C)OC1=O)S(=O)(=O)C(F)(F)F"
experimental_target = "transplanted paddy rice plant and Bulrush"
endpoint_value = "≧30"


---

# Tested on: transplanted paddy rice plant and Bulrush
# assay method text: Test Example 5: selectivity between transplanted paddy rice plant and weeds
# Type: in vivo
# experimental parameters: (highest dosage with no phytotoxicity to paddy rice)/(lowest dosage with effective level 4 on Bulrush); rice 3000-100 g/ha, Bulrush 300-10 g/ha; 21 days
measured attribute: Selective Index

Example cases with answers are listed next.
[[record]]
compound = "COC(=O)N(c1ccccc1CN1CC(C)(C2CC2)OC1=O)S(=O)(=O)C(F)(F)F (racemic)"
experimental_target = "transplanted paddy rice plant and Bulrush"
measured_attribute = "Selective Index"
endpoint_value = "≧30"

[[record]]
compound = "CC[C@@H]1CN(Cc2ccccc2N(C(=O)OCC(C)C)S(=O)(=O)C(F)(F)F)C(=O)O1"
experimental_target = "transplanted paddy rice plant and Bulrush"
measured_attribute = "Selective Index"
endpoint_value = "≧30"

[[record]]
compound = "CC1(C)OC(=O)N(Cc2ccccc2NS(=O)(=O)C(F)(F)F)C1=O"
experimental_target = "transplanted paddy rice plant and Bulrush"
measured_attribute = "Selective Index"
endpoint_value = "≧10"

[[record]]
compound = "CCCCCCCOC(=O)N(c1ccccc1CN1CC(C)(C)OC1=O)S(=O)(=O)C(F)(F)F"
experimental_target = "transplanted paddy rice plant and Bulrush"
measured_attribute = "Selective Index"
endpoint_value = "≧30"

[[record]]
compound = "CCCCOC(=O)N(c1ccccc1CN1CC(C)(C)OC1=O)S(=O)(=O)C(F)(F)F"
experimental_target = "transplanted paddy rice plant and Bulrush"
measured_attribute = "Selective Index"
endpoint_value = "≧30"

[[record]]
compound = "CCC(C)COC(=O)N(c1ccccc1CN1CC(C)(C)OC1=O)S(=O)(=O)C(F)(F)F (stereo not shown)"
experimental_target = "transplanted paddy rice plant and Bulrush"
measured_attribute = "Selective Index"
endpoint_value = "≧30"

[[record]]
compound = "CC(C)COC(=O)N(c1ccccc1CN1C(=O)OC(C)(C)C1=O)S(=O)(=O)C(F)(F)F"
experimental_target = "transplanted paddy rice plant and Bulrush"
measured_attribute = "Selective Index"
endpoint_value = "≧10"

[[record]]
compound = "COC(=O)N(c1ccccc1CN1C(=O)OC(C)(C)C1C)S(=O)(=O)C(F)(F)F (stereo not shown)"
experimental_target = "transplanted paddy rice plant and Bulrush"
measured_attribute = "Selective Index"
endpoint_value = "≧30"


## Input I would be grateful if you could share the reported Selective Index for CCC1COC(=O)N1Cc1ccccc1NS(=O)(=O)C(F)(F)F (stereo not shown) .
## Output ≧10

## Input Which measured Selective Index value corresponds to `CCCOC(=O)N(c1ccccc1CN1CC(C)(C)OC1=O)S(=O)(=O)C(F)(F)F` ?
## Output ≧30
